Consider the following compounds and their measured relative viability readings.
system: SW1353; assay: relative viability vs DMSO control (72 h) (fraction); higher = more viable cells; conditions: 0.04115 µM
Provide a numeric answer; units are not to be included.

{"Entry Smiles": "Cc1cn(-c2cc(NC(=O)c3ccc(C)c(Nc4nccc(-c5cccnc5)n4)c3)cc(C(F)(F)F)c2)cn1", "Target Or Test System": "SW1353", "Result Value": 1.01}
{"Entry Smiles": "Cc1cccc(-c2[nH]c(CNc3ccccc3F)nc2-c2ccc3ncnn3c2)n1", "Target Or Test System": "SW1353", "Result Value": 0.953}
{"Entry Smiles": "Cc1cn(-c2cc(NC(=O)c3ccc(C)c(Nc4nccc(-c5cnccn5)n4)c3)cc(C(F)(F)F)c2)cn1", "Target Or Test System": "SW1353", "Result Value": 1.1}

Consider the additional compound presented here.
Q: Using the record for CNC(=O)c1cc(Oc2ccc(NC(=O)Nc3ccc(Cl)c(C(F)(F)F)c3)cc2)ccn1 , report its relative viability.
A: 1.01
